Can you tell me EC50 for the items I'm about to list?
- Target Under Test: F508del (Homo sapiens, UniProt P13569, DEL508-508)
- Construct: expressed in transfected cells
- Sequence (P13569 with tags, fused parts or gaps DEL508-508): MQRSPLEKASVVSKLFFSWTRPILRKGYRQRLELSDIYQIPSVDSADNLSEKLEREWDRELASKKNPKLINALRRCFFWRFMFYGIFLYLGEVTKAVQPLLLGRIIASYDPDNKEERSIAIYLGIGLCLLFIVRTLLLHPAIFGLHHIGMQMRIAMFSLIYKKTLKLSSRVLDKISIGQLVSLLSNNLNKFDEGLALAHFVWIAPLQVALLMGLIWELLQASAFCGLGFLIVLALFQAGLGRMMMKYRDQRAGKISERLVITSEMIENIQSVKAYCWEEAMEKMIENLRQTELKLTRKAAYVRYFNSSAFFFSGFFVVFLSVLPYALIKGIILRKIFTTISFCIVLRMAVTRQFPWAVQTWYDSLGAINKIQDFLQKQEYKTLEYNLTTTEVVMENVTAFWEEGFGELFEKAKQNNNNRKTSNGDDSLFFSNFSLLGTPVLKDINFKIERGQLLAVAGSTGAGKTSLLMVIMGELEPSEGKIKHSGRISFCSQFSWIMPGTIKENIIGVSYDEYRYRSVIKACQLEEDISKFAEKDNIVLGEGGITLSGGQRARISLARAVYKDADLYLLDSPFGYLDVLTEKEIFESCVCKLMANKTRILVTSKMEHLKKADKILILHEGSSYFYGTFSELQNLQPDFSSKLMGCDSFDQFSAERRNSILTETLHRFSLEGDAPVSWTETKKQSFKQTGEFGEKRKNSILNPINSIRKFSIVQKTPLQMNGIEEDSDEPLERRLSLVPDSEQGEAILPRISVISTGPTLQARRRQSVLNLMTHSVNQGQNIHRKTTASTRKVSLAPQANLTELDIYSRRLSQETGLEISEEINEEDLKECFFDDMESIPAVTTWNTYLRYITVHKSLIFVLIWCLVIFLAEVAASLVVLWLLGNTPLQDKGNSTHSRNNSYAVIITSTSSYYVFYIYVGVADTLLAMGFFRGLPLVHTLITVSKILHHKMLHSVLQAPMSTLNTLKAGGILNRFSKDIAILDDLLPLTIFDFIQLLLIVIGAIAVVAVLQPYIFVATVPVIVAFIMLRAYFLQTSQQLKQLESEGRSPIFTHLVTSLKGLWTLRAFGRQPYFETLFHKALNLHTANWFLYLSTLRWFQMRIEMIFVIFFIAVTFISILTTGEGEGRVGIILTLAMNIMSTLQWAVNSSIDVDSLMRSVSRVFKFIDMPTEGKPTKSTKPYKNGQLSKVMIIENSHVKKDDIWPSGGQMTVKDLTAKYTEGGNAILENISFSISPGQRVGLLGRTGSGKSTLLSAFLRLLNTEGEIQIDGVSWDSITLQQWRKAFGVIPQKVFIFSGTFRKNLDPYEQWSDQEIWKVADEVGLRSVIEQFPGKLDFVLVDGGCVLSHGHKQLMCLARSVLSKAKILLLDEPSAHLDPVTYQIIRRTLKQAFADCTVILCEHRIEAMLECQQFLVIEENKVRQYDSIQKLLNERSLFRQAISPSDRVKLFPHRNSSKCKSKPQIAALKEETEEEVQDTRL
- Protocol Details: Membrane potential optical assay (FRET voltage-sensor dyes), identification of correction compounds
- Type: cell-based
- Run Parameters: modulation of CFTR activity; NIH3T3 cells stably expressing F508del; procedures described above

Examples with their reported EC50 follow.
>  <Compound>
CC(C)COc1cc(F)cc(-c2ccc(C(=O)NS(=O)(=O)c3cccc(N)n3)c(OC(C(C)C)C(C)C)n2)c1

>  <Target Under Test>
F508del (Homo sapiens, UniProt P13569, DEL508-508)

>  <EC50>
< 3 µM

$$$$
>  <Compound>
CCC(C)(C)Oc1nc(-c2cc(F)cc(OCC(C)C)c2)ccc1C(=O)NS(=O)(=O)c1cccc(N)n1

>  <Target Under Test>
F508del (Homo sapiens, UniProt P13569, DEL508-508)

>  <EC50>
< 3 µM

$$$$
>  <Compound>
CCCCOc1nc(-c2cc(F)cc(OCC(C)C)c2)ccc1C(=O)NS(=O)(=O)c1cccc(N)n1

>  <Target Under Test>
F508del (Homo sapiens, UniProt P13569, DEL508-508)

>  <EC50>
< 3 µM

$$$$
>  <Compound>
COC[C@H](C)Oc1nc(-c2cc(F)cc(OCC(C)C)c2)ccc1C(=O)NS(=O)(=O)c1cccc(N)n1

>  <Target Under Test>
F508del (Homo sapiens, UniProt P13569, DEL508-508)

>  <EC50>
< 3 µM

$$$$
>  <Compound>
COc1nc(-c2cc(F)cc(OCC(C)C)c2)ccc1C(=O)NS(=O)(=O)c1cccc(N)n1

>  <Target Under Test>
F508del (Homo sapiens, UniProt P13569, DEL508-508)

>  <EC50>
< 3 µM

$$$$

Dear colleague, could you send me EC50 for each of the items below? Thanks.
1. CC(C)COc1cc(F)cc(-c2ccc(C(=O)NS(=O)(=O)c3cccc(N)n3)c(OC(C)C)n2)c1
2. CC(C)COc1cc(F)cc(-c2ccc(C(=O)NS(=O)(=O)c3cccc(N)n3)c(N(C)CC(F)(F)F)n2)c1
3. CC(C)COc1cc(F)cc(-c2ccc(C(=O)NS(=O)(=O)c3cccc(N)n3)c(OC(C)CC(F)(F)F)n2)c1 (centres unmarked)
4. CCOc1cccc2c1CN(CC(C)(C)C)C2(C)C(=O)NS(=O)(=O)c1cccc(=O)[nH]1 (centres unmarked)
5. CC(C)COc1cc(F)cc(-c2ccc(C(=O)NS(=O)(=O)c3cccc(N)n3)c(OCCOC(C)C)n2)c1
6. CC(C)COc1cc(F)cc(-c2ccc(C(=O)NS(=O)(=O)c3cccc(N)n3)c(OC(C)C(F)(F)F)n2)c1 (centres unmarked)
7. CC(C)COc1cc(F)cc(-c2ccc(C(=O)NS(=O)(=O)c3ccn[nH]3)c(N(C)C(C)C)n2)c1
8. COCCCOc1nc(-c2cc(F)cc(OCC(C)C)c2)ccc1C(=O)NS(=O)(=O)c1cccc(N)n1

Response line:
1: < 3 µM; 2: < 3 µM; 3: < 3 µM; 4: > 10 µM; 5: < 3 µM; 6: < 3 µM; 7: < 3 µM; 8: < 3 µM

###

- Target Under Test: F508del (Homo sapiens, UniProt P13569, DEL508-508)
- Protocol Details: Membrane potential optical assay (FRET voltage-sensor dyes), identification of correction compounds
- Run Parameters: modulation of CFTR activity; NIH3T3 cells stably expressing F508del; procedures described above
pEC50: −log10 of the molar value.
Measured Attribute: pEC50

Examples with their reported pEC50 follow.
>  <Compound>
CCC(Oc1nc(-c2cc(F)cc(OCC(C)C)c2)ccc1C(=O)NS(=O)(=O)c1cccc(N)n1)C(C)C (stereo not drawn)

>  <pEC50>
> 5.52

$$$$
>  <Compound>
CC(C)Oc1nc(C(C)(C)C)ccc1C(=O)NS(=O)(=O)c1cccc(N)n1

>  <pEC50>
5.00 to 5.52

$$$$

Dear colleague, could you send me pEC50 for each of the items below? Thanks.
1. CCC(COC)Oc1nc(-c2cc(F)cc(OCC(C)C)c2)ccc1C(=O)NS(=O)(=O)c1cccc(N)n1 (stereo not drawn)
2. CC(C)COc1cc(F)cc(-c2ccc(C(=O)NS(=O)(=O)c3cccc(N)n3)c(NC(C)(C)C)n2)c1

Response line:
["> 5.52", "> 5.52"]

Dear colleague, could you send me pEC50 for each of the items below? Thanks.
1. CC(C)COc1cc(F)cc(-c2ccc(C(=O)NS(=O)(=O)c3ccn[nH]3)c(NCC(C)(C)C)n2)c1
2. CCOc1nc(-c2cc(F)cc(OCC(C)C)c2)ccc1C(=O)NS(=O)(=O)c1cccc(N)n1
3. CC(C)COc1cc(F)cc(-c2ccc(C(=O)NS(=O)(=O)c3cccc(N)n3)c(OCC(F)(F)F)n2)c1
4. CC(C)COc1cc(F)cc(-c2ccc(C(=O)NS(=O)(=O)c3cccc(N)n3)c(OCC(F)F)n2)c1
5. CC(C)COc1cc(F)cc(-c2ccc(C(=O)NS(=O)(=O)c3cccc(N)n3)c(OCCC(C)(C)C)n2)c1

Response line:
5.00 to 5.52
> 5.52
5.00 to 5.52
5.00 to 5.52
> 5.52

###

- Target Under Test: F508del (Homo sapiens, UniProt P13569, DEL508-508)
- Construct: expressed in transfected cells
- Protocol Details: Membrane potential optical assay (FRET voltage-sensor dyes), identification of correction compounds
- Assay type: cell-based
- Run Parameters: maximum efficacy; NIH3T3 cells stably expressing F508del; procedures described above; read-out: Max Efficacy
Can you tell me Emax for the items I'm about to list?

Examples with their reported Emax follow.
>  <Cpd Smiles>
CC(C)COc1cc(F)cc(-c2ccc(C(=O)NS(=O)(=O)c3cccc(N)n3)c(N(C)CC(F)F)n2)c1

>  <Emax>
> 80%

$$$$
>  <Cpd Smiles>
CC(C)COc1cc(F)cc(-c2ccc(C(=O)NS(=O)(=O)c3cccc(N)n3)c(OCCC(F)(F)F)n2)c1

>  <Emax>
30 to 80%

$$$$
>  <Cpd Smiles>
CC(C)COc1cc(F)cc(-c2ccc(C(=O)NS(=O)(=O)c3ccccc3)c(N(C)CCCC(=O)O)n2)c1

>  <Emax>
≤ 30%

$$$$
>  <Cpd Smiles>
COCCOc1nc(-c2cc(F)cc(OCC(C)C)c2)ccc1C(=O)NS(=O)(=O)c1cccc(N)n1

>  <Emax>
30 to 80%

$$$$
>  <Cpd Smiles>
CC(C)COc1cc(F)cc(-c2ccc(C(=O)NS(=O)(=O)c3cccc(N)n3)c(N(C(C)C)C(C)C)n2)c1

>  <Emax>
> 80%

$$$$
>  <Cpd Smiles>
COCC(C)(C)Oc1nc(-c2cc(F)cc(OCC(C)C)c2)ccc1C(=O)NS(=O)(=O)c1cccc(N)n1

>  <Emax>
30 to 80%

$$$$

Prompt line: Note down Emax recorded for "CC(C)COc1cc(F)cc(-c2ccc(C(=O)NS(=O)(=O)c3cccc(N)n3)c(OCCCC(F)(F)F)n2)c1"
Response line: 30 to 80%

###

- Target Under Test: F508del (Homo sapiens, UniProt P13569, DEL508-508)
- Construct: expressed in transfected cells
- Protocol Details: Membrane potential optical assay (FRET voltage-sensor dyes), identification of correction compounds
- Format: cell-based
- Run Parameters: maximum efficacy; NIH3T3 cells stably expressing F508del; procedures described above; read-out: Max Efficacy
Measured Attribute: Emax

Examples with their reported Emax follow.
>  <Compound>
CC(C)COc1cc(F)cc(-c2ccc(C(=O)NS(=O)(=O)c3ccn[nH]3)c(NCCC(C)(C)C)n2)c1 [Compound 50]

>  <Result>
30 to 80%

$$$$
>  <Compound>
CCCCCNc1nc(-c2cc(F)cc(OCC(C)C)c2)ccc1C(=O)NS(=O)(=O)c1cccc(N)n1 [Compound 84]

>  <Result>
> 80%

$$$$
>  <Compound>
CC(C)COc1cc(F)cc(-c2ccc(C(=O)NS(=O)(=O)c3cccc(N)n3)c(OCCC(C)(C)C)n2)c1 [Compound 3]

>  <Result>
> 80%

$$$$

Dear colleague, could you send me Emax for each of the items below? Thanks.
1. COCCCOc1nc(-c2cc(F)cc(OCC(C)C)c2)ccc1C(=O)NS(=O)(=O)c1cccc(N)n1 [Compound 21]
2. CC(C)COc1cc(F)cc(-c2ccc(C(=O)NS(=O)(=O)c3cccc(N)n3)c(OCC(F)F)n2)c1 [Compound 38]

Response line:
30 to 80%
30 to 80%

Dear colleague, could you send me Emax for each of the items below? Thanks.
1. CC(C)COc1cc(F)cc(-c2ccc(C(=O)NS(=O)(=O)c3cccc(N)n3)c(OC(C)CC(C)(C)C)n2)c1 (centres unmarked) [Compound 36]
2. CCCCOc1nc(-c2cc(F)cc(OCC(C)C)c2)ccc1C(=O)NS(=O)(=O)c1cccc(N)n1 [Compound 63]
3. CC(C)=C(C)c1nc(-c2cc(F)cc(OCC(C)C)c2)ccc1C(=O)NS(=O)(=O)c1cccc(N)n1 [Compound 37]

Response line:
1. 30 to 80%
2. > 80%
3. 30 to 80%

Dear colleague, could you send me Emax for each of the items below? Thanks.
1. CC(C)COc1cc(F)cc(-c2ccc(C(=O)NS(=O)(=O)c3cccc(N)n3)c(OC(C(F)(F)F)C(F)(F)F)n2)c1 [Compound 33]
2. COC[C@H](C)Oc1nc(-c2cc(F)cc(OCC(C)C)c2)ccc1C(=O)NS(=O)(=O)c1cccc(N)n1 [Compound 20]

Response line:
1. 30 to 80%
2. 30 to 80%
